Below, each entry is listed alongside its reported mass density.
conditions: 303.15 K; 100 kPa; Liquid; Vibrating tube method
Give a bare numeral; the unit kg/m3 is implied.

CCCCCCCO : 815.28

Which mass density value is on record for "OCC1CCCCC1" ?
922.71

// next record "CC12CC3CC(C1)CC(C)(C3)C2"
894.48

// next record "CC12CC3CC(C)(C1)CC(C)(C3)C2"
880.47

// next record "CCC12CC3CC(CC(C3)C1)C2"
929.99

---

Below, each entry is listed alongside its reported mass density.
conditions: 298.15 K; 100 kPa; Liquid; Vibrating tube method
Give a bare numeral; the unit kg/m3 is implied.

Please review the following examples before continuing.
CC12CC3CC(C1)CC(C)(C3)C2 [1,3-dimethyladamantane] : 898.04
CC12CC3CC(C)(C1)CC(C)(C3)C2 [1,3,5-trimethyladamantane] : 883.99

Next, consider the following molecule.
Which mass density value is on record for OCC1CCCCC1 [cyclohexylmethanol] ?
926.25
